Would you kindly list solubility (mole fraction) for each of these compounds?
measurement-conditions: in toluene, 313.16 K
Answer as a number with no unit attached.

Name the recorded solubility (mole fraction) for `O=C(O)CCP(=O)(O)c1ccccc1` . 0.00092

What about `COc1ccc(P(c2ccc(OC)cc2)c2ccc(OC)cc2)cc1` ? 0.00075

What about `COc1ccc(P(=O)(c2ccc(OC)cc2)c2ccc(OC)cc2)cc1` ? 0.00083

What about O=P1(O)OCC2(CO1)COP(=O)(O)OC2 (stereo not given) ? 0.00104

What about `O=P(O)(CO)c1ccccc1` ? 0.002

---

measurement-conditions: in 1,4-dioxane, 328.23 K
result-type: solubility (mole fraction)
Answer as a number with no unit attached.

Name the recorded solubility (mole fraction) for O=P1(Oc2ccccc2)OCC2(CO1)COP(=O)(Oc1ccccc1)OC2 (stereo unspecified) . 0.00383
